Consider the following compounds; for each one, report its pIC50.
assay_target: UniProt:P45983
Sequence (P45983 whole entry): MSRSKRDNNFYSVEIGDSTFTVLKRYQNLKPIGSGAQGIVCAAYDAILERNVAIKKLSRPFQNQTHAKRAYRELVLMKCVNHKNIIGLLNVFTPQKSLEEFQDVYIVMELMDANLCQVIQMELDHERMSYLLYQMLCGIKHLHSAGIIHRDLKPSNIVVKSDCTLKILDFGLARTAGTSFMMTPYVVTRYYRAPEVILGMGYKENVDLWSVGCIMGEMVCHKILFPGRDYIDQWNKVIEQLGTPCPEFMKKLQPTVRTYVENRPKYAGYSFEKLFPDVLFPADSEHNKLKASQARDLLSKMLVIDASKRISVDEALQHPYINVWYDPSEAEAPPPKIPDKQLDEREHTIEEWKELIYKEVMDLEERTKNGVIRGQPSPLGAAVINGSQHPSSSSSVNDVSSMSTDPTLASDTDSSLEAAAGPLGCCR
protocol_text: In Vitro JNK1 Assay (TR-FRET, phosphorylation of GST-c-Jun)
Assay type: biochemical
experimental_setup: 0.2 nM active JNK1 kinase, 26.7 nM GST-c-Jun, 2 μM ATP, 30 min at room temperature
Give bare numbers, as −log10 of the molar value.

# annotated cases, reported pIC50 shown
sample_smiles | assay_target | reported_value
O=C(NCc1c(-c2ncco2)n(-c2ccccc2)c2cc(Cl)ccc2c1=O)c1ccc2c(c1)OCO2 | UniProt:P45983 | 7.60
O=C(NCc1c(-c2ncco2)n(-c2ccccc2)c2ncccc2c1=O)c1ccc(N2CCOCC2)nc1 | UniProt:P45983 | 7.54
COC(=O)c1c(CNC(=O)C2CCN(S(C)(=O)=O)CC2)c(=O)c2ccc(Cl)cc2n1-c1ccccc1 | UniProt:P45983 | 6.19

Fill in pIC50 for each of the 4 compounds listed.
1. O=C(NCc1cn(-c2ccccc2)c2cc(Cl)ccc2c1=O)c1cn(Cc2ccccc2)nn1
2. O=C(NCc1cn(-c2ccccc2)c2cc(Cl)ccc2c1=O)c1ccc(N2CCC(O)CC2)nc1
3. CN(C)C(=O)c1c(CNC(=O)c2cnc(N3CCC(CO)CC3)s2)c(=O)c2ccc(Cl)cc2n1-c1ccccc1
4. O=C(NCc1c(-c2ncco2)n(-c2ccccc2)c2cc(Cl)ccc2c1=O)c1ccn(Cc2ccccc2)c(=O)c1

Response:
1: 6.15; 2: 7.47; 3: 7.01; 4: 9.00
